# assay-protocol: Protonation constants of the ligands by potentiometry
# Type: physicochemical
# settings: I = 0.1 KNO3, 25° C.
quantity-measured: log Ki^H [H4L]/[H3L][H]

>  <given-smiles>
O=C(O)c1cccc(CN2CCN(Cc3cccc(C(=O)O)n3)Cc3cccc(n3)CN(Cc3cccc(C(=O)O)n3)CC2)n1

>  <quantity-measured>
log Ki^H [H4L]/[H3L][H]

>  <reported-value>
2.98

$$$$
>  <given-smiles>
O=C(O)CN1CCN(Cc2cccc(C(=O)O)n2)CCN(Cc2cccc(C(=O)O)n2)Cc2cccc(n2)C1

>  <quantity-measured>
log Ki^H [H4L]/[H3L][H]

>  <reported-value>
2.98

$$$$
>  <given-smiles>
O=C(O)CN1CCN(Cc2cccc(C(=O)O)n2)Cc2cccc(n2)CN(Cc2cccc(C(=O)O)n2)CC1

>  <quantity-measured>
log Ki^H [H4L]/[H3L][H]

>  <reported-value>
3.01

$$$$
>  <given-smiles>
O=C(O)CN1CCN(Cc2cccc(C(=O)O)n2)CCN(CC(=O)O)Cc2cccc(n2)C1

>  <quantity-measured>
log Ki^H [H4L]/[H3L][H]

>  <reported-value>
2.15

$$$$

###

# assay-protocol: Protonation constants of the ligands by potentiometry
# Format: physicochemical
# settings: I = 0.1 KNO3, 25° C.
quantity-measured: log Ki^H [HL]/[L][H]

>  <compound>
O=C(O)CN1CCN(Cc2cccc(C(=O)O)n2)Cc2cccc(n2)CN(Cc2cccc(C(=O)O)n2)CC1

>  <reported-value>
11.30

$$$$
>  <compound>
CCCCOP(=O)(O)CN1CCN(CP(=O)(O)OCCCC)Cc2cccc(n2)CN(CP(=O)(O)OCCCC)CC1 [PCTMB, reference compound]

>  <reported-value>
11.16

$$$$
>  <compound>
O=C(O)CN1CCN(Cc2cccc(C(=O)O)n2)CCN(CC(=O)O)Cc2cccc(n2)C1

>  <reported-value>
10.43

$$$$
>  <compound>
O=C(O)c1cccc(CN2CCN(Cc3cccc(C(=O)O)n3)Cc3cccc(n3)CN(Cc3cccc(C(=O)O)n3)CC2)n1

>  <reported-value>
10.03

$$$$
>  <compound>
O=C(O)CN1CCN(Cc2cccc(C(=O)O)n2)CCN(Cc2cccc(C(=O)O)n2)Cc2cccc(n2)C1

>  <reported-value>
10.50

$$$$

###

# assay-protocol: pM = −log[M] calculated from protonation and stability constants
# Assay type: physicochemical
# settings: calculated from the constants with CL = 10 × CM = 10^−5 M at pH 7.4
quantity-measured: pY (pM = −log[M])

>  <given-smiles>
O=C(O)CN1CCN(CC(=O)O)Cc2cccc(n2)CN(CC(=O)O)CC1

>  <pY (pM = −log[M])>
17.0

$$$$
>  <given-smiles>
O=C([O-])c1cccc(CN2CCN(Cc3cccc(C(=O)[O-])n3)Cc3cccc(n3)CN(Cc3cccc(C(=O)[O-])n3)CC2)n1.[Y+3]

>  <pY (pM = −log[M])>
14.7

$$$$
>  <given-smiles>
O=C(O)CN1CCN(Cc2cccc(C(=O)O)n2)CCN(Cc2cccc(C(=O)O)n2)Cc2cccc(n2)C1

>  <pY (pM = −log[M])>
17.3

$$$$
